Values compiled from patent US11155559B2.

# target entity: ROCK protein kinase
# assay notes: Evaluation of ROCK protein kinase inhibitory activity in vitro (33P-ATP filter-binding)
# settings: 1 nM ROCK, 20 μM Long S6 Kinase substrate peptide, room temperature, two hours
pIC50: −log10 of the molar value.
So basically: pIC50 at 7 or higher? That is fulfilled. Lower than 7? That is not fulfilled.

- compound: "CC1C2NCCC2CN1S(=O)(=O)c1cccc2cnccc12 (stereo not drawn) [embodiment 7]"
  answer label: "fulfilled"

Determine whether measured pIC50 meets or exceeds 7 for CC1C2NCCC2CN1S(=O)(=O)c1cccc2c(O)ncc(F)c12 (stereo not drawn) [embodiment 10]
not fulfilled

Next record, please: CC1C2NCCC2CN1S(=O)(=O)c1cccc2cncc(F)c12 (stereo not drawn) [embodiment 6]
fulfilled

Next record, please: CC1C2NCCC2CN1S(=O)(=O)c1cccc2cnccc12 (stereo not drawn) [embodiment 7-2]
fulfilled

----------
# assay notes: Evaluation of pharmacokinetics in rats
# Assay type: in vivo
# settings: rat, plasma; male SD rats, single administration; groups 2 mg/kg intravenous and 10 mg/kg oral gavage; route for this parameter not stated; read-out: Clearance rate (Cl)
# Protocol: Evaluation of Pharmacokinetics in Rats Male SD rats were used as test animals, after a single administration, the blood concentrations of the compounds were measured and the pharmacokinetic behavior was evaluated. […]
reported endpoint: clearance (mL/min/kg)
A number alone suffices; assume mL/min/kg.

Dear colleague, I am looking for the recorded clearance of the following compound: CC1C2NCCC2CN1S(=O)(=O)c1cccc2cncc(F)c12 (stereo not shown) [embodiment 6]
43.8

----------
# target entity: hERG potassium channel (Homo sapiens)
# Sequence (Q12809 whole entry): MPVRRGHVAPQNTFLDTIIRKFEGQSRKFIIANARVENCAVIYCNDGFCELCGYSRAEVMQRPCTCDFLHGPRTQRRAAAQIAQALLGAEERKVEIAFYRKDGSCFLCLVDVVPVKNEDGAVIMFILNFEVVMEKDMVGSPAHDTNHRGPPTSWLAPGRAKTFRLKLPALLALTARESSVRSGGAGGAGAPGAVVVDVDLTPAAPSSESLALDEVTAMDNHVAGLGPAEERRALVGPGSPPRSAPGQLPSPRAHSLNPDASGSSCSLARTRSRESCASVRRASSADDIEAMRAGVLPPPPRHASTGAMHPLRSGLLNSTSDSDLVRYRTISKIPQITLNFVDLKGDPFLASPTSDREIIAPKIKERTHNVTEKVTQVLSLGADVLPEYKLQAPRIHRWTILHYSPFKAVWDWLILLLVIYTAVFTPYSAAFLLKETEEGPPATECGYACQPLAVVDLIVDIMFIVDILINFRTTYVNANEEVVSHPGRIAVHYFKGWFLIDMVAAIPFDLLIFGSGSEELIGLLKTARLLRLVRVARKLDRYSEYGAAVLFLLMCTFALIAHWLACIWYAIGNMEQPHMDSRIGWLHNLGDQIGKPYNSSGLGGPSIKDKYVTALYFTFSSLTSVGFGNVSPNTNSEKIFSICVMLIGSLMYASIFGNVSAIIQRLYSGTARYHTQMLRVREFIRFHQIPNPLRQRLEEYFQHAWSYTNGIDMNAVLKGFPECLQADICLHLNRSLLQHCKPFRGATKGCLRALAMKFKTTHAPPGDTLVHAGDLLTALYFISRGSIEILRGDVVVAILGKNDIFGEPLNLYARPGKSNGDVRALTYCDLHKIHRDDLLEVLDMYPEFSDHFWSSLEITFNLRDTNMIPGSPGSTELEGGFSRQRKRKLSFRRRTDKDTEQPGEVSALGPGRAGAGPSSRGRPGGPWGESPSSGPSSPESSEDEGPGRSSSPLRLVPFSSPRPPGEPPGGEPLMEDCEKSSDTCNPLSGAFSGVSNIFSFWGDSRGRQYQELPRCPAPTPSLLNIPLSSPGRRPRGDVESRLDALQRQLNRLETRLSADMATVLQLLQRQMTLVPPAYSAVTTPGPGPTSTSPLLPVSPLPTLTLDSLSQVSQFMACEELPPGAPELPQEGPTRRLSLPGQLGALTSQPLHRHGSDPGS
# assay notes: hERG experiment (QPatch HTX whole-cell, CHO-hERG cells)
# settings: room temperature, tested at 0.24 to 30.00 μM, read-out: hERG inhibitory activity (IC50)
reported endpoint: IC50 (µM)
A number alone suffices; assume µM.

Dear colleague, I am looking for the recorded IC50 of the following molecule: Cc1cncc2cccc(S(=O)(=O)N3C[C@@H]4CCN[C@@H]4C3)c12 [Embodiment 38 (WO2015/165341), reference compound]
4.6

----------
# target entity: ROCK protein kinase
# assay notes: Evaluation of ROCK protein kinase inhibitory activity in vitro (33P-ATP filter-binding)
# settings: 1 nM ROCK, 20 μM Long S6 Kinase substrate peptide, room temperature, two hours
Each entry below carries its recorded IC50.
A number alone suffices; assume nM.

- molecule: "CC1C2NCCC2CN1S(=O)(=O)c1cccc2cncc(F)c12 (centres unmarked) [embodiment 6-2]"
  result value: 8
- molecule: "O=S(=O)(c1cccc2cnccc12)N1CC2CCNC2C12CC2 (centres unmarked)"
  result value: 20

Dear colleague, I am looking for the recorded IC50 of the following molecule: O=S(=O)(c1cccc2cncc(Cl)c12)N1CC2CCNC2C12CC2 (centres unmarked)
32

Next record, please: Cc1cncc2cccc(S(=O)(=O)N3CC4CCNC4C3C)c12 (centres unmarked)
18

Next record, please: O=S(=O)(c1cccc2cncc(F)c12)N1CC2CCNC2C12CC2 (centres unmarked)
93
